- measurement_description: growth inhibitors of H69AR lung tumor, primary screen, human, duplicate replicates (AID 580);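 note: 100% = mean luminescence of untreated wells and 0% = no signal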
- measurement_conditions: H69AR lung tumor cells viability, ATP luminescence, 72 h; at 10 µM; active compounds read low
Could you please report measured viability for the items listed next?
# unit: % | format: bare number

Just so you know, measured viability for `O=C(Nc1ccc2oc(=O)ccc2c1)c1cccnc1` came out at 98.9

Just so you know, measured viability for `NS(=O)(=O)c1ccc(NC(=O)CSc2nnc(Cc3cccs3)n2-c2ccccc2)cc1` came out at 93.3

Just so you know, measured viability for `c1ccc2c(SCc3cn4cccnc4n3)ncnc2c1` came out at 88.4

Just so you know, measured viability for Cc1ccc2cc(C(c3nnnn3C3CCCC3)N3CCN(c4ccc(F)cc4)CC3)c(=O)[nH]c2c1 (centres undefined) came out at 67.6

Just so you know, measured viability for COC(=O)c1ccc(C2CC(=O)Nc3cc(OC)c(OC)c(OC)c32)cc1 (centres undefined) came out at 89.4

Just so you know, measured viability for CC(NC(=O)c1cn(C)c2ccc(S(=O)(=O)N3CCCC3)cc2c1=O)c1ccc2c(c1)OCCO2 (centres undefined) came out at 77.8

Just so you know, measured viability for `CCN1CCN(Cc2ccccc2NC(=O)Nc2ccc(C)cc2)CC1` came out at 98

Just so you know, measured viability for `COc1ccccc1N1CCN(C(=O)CN(Cc2ccc(Cl)cc2)S(C)(=O)=O)CC1` came out at 99.8

Just so you know, measured viability for `CCCC(=O)Nc1nnc(CC(=O)N2CCCC2)s1` came out at 96.9

Just so you know, measured viability for `Cn1c(-c2ccc(F)cc2)cnc1SCC(=O)Nc1ccccc1N1CCOCC1` came out at 102

Just so you know, measured viability for `COc1ccc(-c2noc(CCCOc3ccccc3)n2)cc1OC` came out at 93.7

Just so you know, measured viability for `Cc1ccccc1Cn1ccc(NC(=O)c2cnn3c(C(F)(F)F)cc(-c4ccco4)nc23)n1` came out at 60.4

Just so you know, measured viability for `O=C(CN1CCN(c2ncc(C(F)(F)F)cc2Cl)CC1)Nc1ccc2c(c1)OCO2` came out at 93.2

Just so you know, measured viability for `COc1ccccc1N1CCN(C(=O)c2ccc3nc(-c4ccco4)c(-c4ccco4)nc3c2)CC1` came out at 69.6

Just so you know, measured viability for `Cc1nnc(SCCn2c(Br)nc3c2c(=O)n(C)c(=O)n3C)s1` came out at 98.2

Just so you know, measured viability for C/C(=C\c1ccco1)C1C(C#N)=C(N)OC2=C1C(=O)CC(C)(C)C2 (centres undefined) came out at 80.1

Just so you know, measured viability for O=C(O)COc1cccc(NC(=O)C2CCCO2)c1 (centres undefined) came out at 93.3

Just so you know, measured viability for N#CC1=C(N)N(c2ccccc2)C(c2ccco2)C1(C#N)C#N (centres undefined) came out at 85.5

Just so you know, measured viability for `Cc1ccc(Cn2ccc(NC(=O)c3cc(-c4cccs4)on3)n2)cc1` came out at 82.9

Just so you know, measured viability for `CCOC(=O)c1c(NC(=O)c2ccoc2C)sc2c1CCC2` came out at 78.9

Just so you know, measured viability for CCOC(=O)C1CCCN(C(=O)c2cc3c(-c4cccc(OC)c4)nn(C)c3s2)C1 (centres undefined) came out at 13.2

Just so you know, measured viability for `Cc1cc(C(=O)Nc2c(C)n(C)n(-c3ccccc3)c2=O)c(C)o1` came out at 110

Just so you know, measured viability for CCC(C)OC(=O)c1[nH]c2c(c1C)C(=O)CC(c1ccc(N(C)C)cc1)C2 (centres undefined) came out at 27.6

Just so you know, measured viability for `Cc1onc(-c2ccccc2)c1C(=O)N1CCN(C(=O)c2ccco2)CC1` came out at 88.4

Just so you know, measured viability for `CC(C)N(Cc1nc(-c2ccccc2)no1)C(=O)CCCN1C(=O)c2ccccc2C1=O` came out at 97.9

Just so you know, measured viability for `Cc1csc(NC(=O)CCn2c(=O)oc3ccccc32)n1` came out at 94.4

Just so you know, measured viability for `CCOc1cc(C(=O)N(C)Cc2cc3cc(OC)ccc3[nH]c2=O)cc(OCC)c1OCC` came out at 95.1

Just so you know, measured viability for `O=C(CN1C(=O)COc2ccccc21)N(Cc1cccnc1)Cc1ccccc1F` came out at 83.5

Just so you know, measured viability for C=CCOC(=O)CC(NC(=O)c1ccccc1)c1ccccc1 (centres undefined) came out at 105

Just so you know, measured viability for `c1ccc(-c2csc(N3CCCCCC3)n2)cc1` came out at 100

Just so you know, measured viability for `CCn1c(=O)cc(SCC(=O)Nc2ccc3c(c2)OCO3)c2ccccc21` came out at 87.9

Just so you know, measured viability for `Clc1ccccc1CN1CCc2sccc2C1` came out at 99

Just so you know, measured viability for `O=C(O)CCc1ccc(-c2ccc(F)cc2)n1CCC(=O)O` came out at 98.5

Just so you know, measured viability for `CC(=O)c1cccc(NS(=O)(=O)c2ccc3c(c2)oc(=O)n3C)c1` came out at 106

Just so you know, measured viability for Cc1ccc(S(=O)(=O)N2CCN(C(=O)N3CCOCC3)C2C)cc1 (centres undefined) came out at 99

Just so you know, measured viability for `Cc1cc(C)n(C(=O)CCCCCC(=O)n2nc(C)cc2C)n1` came out at 105

Just so you know, measured viability for `COc1cccc(NC(=O)c2ccccc2NS(C)(=O)=O)c1` came out at 91.9

Just so you know, measured viability for C/C(CC(O)(/C=N/O)c1ccccc1)=N\O (centres undefined) came out at 94

Just so you know, measured viability for `NS(=O)(=O)c1cc2c(cc1Cl)NCNS2(=O)=O` came out at 91.3
